# TARGET SYSTEM: human BChE (Homo sapiens, UniProt P06276)
# Construct: Plasma was removed and used as a source of BChE; from tissue; host or cells: human blood plasma from a healthy volunteer
# Sequence (P06276 29-602): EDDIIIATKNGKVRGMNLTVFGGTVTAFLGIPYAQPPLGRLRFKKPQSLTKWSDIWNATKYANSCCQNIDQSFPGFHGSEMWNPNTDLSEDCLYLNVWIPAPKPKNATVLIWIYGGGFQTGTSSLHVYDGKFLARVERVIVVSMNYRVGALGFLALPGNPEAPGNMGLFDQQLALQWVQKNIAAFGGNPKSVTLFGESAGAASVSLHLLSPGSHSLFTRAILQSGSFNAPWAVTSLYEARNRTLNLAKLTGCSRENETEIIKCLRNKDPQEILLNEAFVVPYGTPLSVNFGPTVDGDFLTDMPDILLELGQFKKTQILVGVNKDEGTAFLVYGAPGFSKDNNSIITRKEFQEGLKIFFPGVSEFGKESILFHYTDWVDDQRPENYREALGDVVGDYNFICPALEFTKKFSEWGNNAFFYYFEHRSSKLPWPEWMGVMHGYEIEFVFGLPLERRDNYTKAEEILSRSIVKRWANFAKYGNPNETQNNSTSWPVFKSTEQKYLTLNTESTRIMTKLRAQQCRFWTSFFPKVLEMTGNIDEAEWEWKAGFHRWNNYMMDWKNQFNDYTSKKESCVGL
# PROTOCOL DESCRIPTION: biochemical
# CONDITION DESCRIPTION: Ki ± standard error; 0.1, 0.2, 0.35 and 0.5 mM substrate ATCh; 25 °C, pH 7.4; read-out: Ki BChE
# Protocol: Cholinesterase substrate acetylthiocholine (ATCh) and the thiol reagent 5,5′-dithiobis(2-nitrobenzoic acid) (DTNB) for the enzyme activity measurement were purchased from Sigma-Aldrich (St. Louis, MO, USA). […] The reversible inhibition experiments followed a previously published procedure. Namely, the enzyme activity was measured in the presence of a wide range of quinuclidine compound concentrations and in the substrate range from 0.1 to 0.5 mM to confirm the type of compound binding. […]
OBSERVED PROPERTY: Ki (µM)
// units = µM; emit number, no label

# annotated cases, reported Ki shown
CCCCCCCCCCCCCC[N+]12CCC(CC1)C(O)C2 (centres unmarked) [Compound 4]	7.9
CCCCCCCCCCCCCCCC[N+]12CCC(CC1)/C(=N\O)C2 [Compound 12]	48.6

Given the entry CCCCCCCCCC[N+]12CCC(CC1)C(O)C2 (centres unmarked) [Compound 2] , what Ki was observed with human BChE (Homo sapiens, UniProt P06276)?
11.8

Given the entry CCCCCCCCCCCCCC[N+]12CCC(CC1)/C(=N\O)C2 [Compound 11] , what Ki was observed with human BChE (Homo sapiens, UniProt P06276)?
8.8

Given the entry CCCCCCCCCCCC[N+]12CCC(CC1)C(O)C2 (centres unmarked) [Compound 3] , what Ki was observed with human BChE (Homo sapiens, UniProt P06276)?
9

###

# Tested on: SH-SY5Y cells
# PROTOCOL DESCRIPTION: Cytotoxicity assay (MTS) on SH-SY5Y
# Type: cell-based
# CONDITION DESCRIPTION: Homo sapiens, 4 h exposure, read-out: IC50 ± SE SH-SY5Y 4 h
OBSERVED PROPERTY: IC50 (µM)
// units = µM; emit number, no label

Bench note: what IC50 did CCCCCCCCCCCCCCCC[N+]12CCC(CC1)C(O)C2 (stereo not shown) show?
8

Bench note: what IC50 did CCCCCCCCCCCC[N+]12CCC(CC1)/C(=N\O)C2 show?
174

Bench note: what IC50 did CCCCCCCCCCCCCC[N+]12CCC(CC1)/C(=N\O)C2 show?
83

Bench note: what IC50 did CCCCCCCCCCCCCC[N+]12CCC(CC1)C(O)C2 (stereo not shown) show?
9

Bench note: what IC50 did CCCCCCCCCCCCCCCC[N+]12CCC(CC1)/C(=N\O)C2 show?
78

###

We begin with a simple list: items and their reported Ki.
# TARGET SYSTEM: human BChE (Homo sapiens, UniProt P06276)
# Construct: Plasma was removed and used as a source of BChE; from tissue; host or cells: human blood plasma from a healthy volunteer
# PROTOCOL DESCRIPTION: biochemical
// units = µM; emit number, no label

CCCCCCCCCC[N+]12CCC(CC1)C(=NO)C2.[Br-]	5.2

Turning now to a further record.
Given the entry CCCCCCCC[N+]12CCC(CC1)C(=NO)C2.[Br-] , what Ki was observed with human BChE (Homo sapiens, UniProt P06276)?
37.9
